# collection of Ki values tested on Somatostatin receptor type 3 (Homo sapiens)
# Sequence (P32745 whole entry): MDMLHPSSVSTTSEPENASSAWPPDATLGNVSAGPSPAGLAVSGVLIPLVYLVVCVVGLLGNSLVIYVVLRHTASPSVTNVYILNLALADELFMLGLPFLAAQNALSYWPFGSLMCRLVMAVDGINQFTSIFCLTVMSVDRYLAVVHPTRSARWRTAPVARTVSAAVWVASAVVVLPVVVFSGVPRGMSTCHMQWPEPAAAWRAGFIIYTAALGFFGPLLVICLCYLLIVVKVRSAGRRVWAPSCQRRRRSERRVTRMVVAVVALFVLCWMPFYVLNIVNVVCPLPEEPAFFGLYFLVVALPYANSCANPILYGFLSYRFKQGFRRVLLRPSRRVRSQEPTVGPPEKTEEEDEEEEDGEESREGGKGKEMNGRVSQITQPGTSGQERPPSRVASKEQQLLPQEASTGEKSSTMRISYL
*1 amine or outer side, *2 acyl side, *3 side chain or, on linkers, in order; H or OH if unused. Where a SMILES comes first, the peptide text is derived from it. Bridges are numbered along the chain shown (N, C = ends). [ ]: non-standard residue; d: D form. The star is where a group is joined. X1 = O=C(C(N[*:1])S[*:3])[*:2]; Ahp = NCCCCCCC(=O)O; Bn = c1ccc(C*)cc1; Mpa = O=C(O)CCS

Some solved cases for reference:
>>> reported_measurement("CC(C)[C@@H]1NC(=O)[C@H](CCCCN)NC(=O)[C@@H](Cc2c[nH]c3ccccc23)NC(=O)[C@H](Cc2ccc(O)cc2)NC(=O)CCSSC(C(=O)N[C@@H](Cc2ccccc2)C(N)=O)NC1=O (stereo partly drawn) [CAS_117580-24-2] ([Mpa]Y[dW]KV[X1]F-NH2; disulfide 1-6)")
"22.9 nM"
>>> reported_measurement("C[C@@H](OCc1ccccc1)[C@@H]1NC(=O)[C@H](CCCCN)NC(=O)[C@@H](Cc2c[nH]c3ccccc23)NC(=O)[C@H](Cc2ccccc2)NC(=O)CCCCCCNC1=O [c[Aha-Phe-D-Trp-Lys-Thr(Bzl)]] (cyclo([Ahp]F[dW]KT(Bn)))")
"132 nM"

IN: Lab note: need Ki with Somatostatin receptor type 3 (Homo sapiens) for entry CC(C)[C@@H]1NC(=O)[C@H](CCCCN)NC(=O)[C@@H](Cc2c[nH]c3ccccc23)NC(=O)[C@H](Cc2ccc(O)cc2)NC(=O)[C@@H](NC(=O)[C@H](N)Cc2ccc3ccccc3c2)CSSC[C@@H](C(=O)N[C@H](C(N)=O)[C@@H](C)O)NC1=O , please look it up.
OUT: 11.7 nM

Taken from BindingDB's records for doi:10.1007/s002109900141.
